# experimental system: T1, RPN13 Pru (1–150), oxidized (UniProt Q16186 1-150, oxidized with 0.05 % H2O2; the oxidized residues are not given)
# T1 construct: RPN13 Pru domain, residues 1-150; also called oxi-RPN13^Pru; not shown: His6, N-terminal, cleaved
# T1 sequence (Q16186 1-150): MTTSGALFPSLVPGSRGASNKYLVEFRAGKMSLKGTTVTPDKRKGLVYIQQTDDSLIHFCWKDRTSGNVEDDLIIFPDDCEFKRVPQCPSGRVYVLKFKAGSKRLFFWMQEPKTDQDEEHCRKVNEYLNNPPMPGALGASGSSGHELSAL
# assay remarks: ITC; RPN2 (940–953) in the syringe (205.7 or 160 μM), RPN13 Pru in the cell (20.57 or 16 μM); 25 °C, non-reducing buffer: 20 mM sodium phosphate, 50 mM NaCl, pH 6.0; one-site fit
# assay setup: both partners purified
measured metric: pKd
// pKd here means minus log10 of the molar concentration (mol/L)

Could you share which pKd value was measured for QEPEPPEPFEYIDD (peptide, UniProt Q99460 940-953, looked up, The construct has a PreScission site after GST, but the methods tell only of elution as the GST fusion; ITC and NMR speak of the RPN2 peptide; also called RPN2 (940–953); RPN2^940–953) [RPN2 peptide (940–953)] ?
7.40
